# System: HOP-92 NSCLC
# Assay notes: NCI-60 one-dose screen, 48 h (100 = growth as untreated, 0 = no growth, -100 = all killed)
# Test settings: 10 µM
Compounds without any hit were thinned out: in the full panel of roughly 83,000, 20% have a hit. The source made the active and inactive calls. How the source made its calls: active means growth percent below 10; inactive means the rest.
Property measured: growth

# count of solved cases: 3
In [3]: df
Out[3]:
                              record_smiles            result
0  CCCCCc1ccc(S(=O)(=O)N(C(C)=O)c2cc(-c3csc(N(C)C(C)=O)n3)ccc2N2CCN(C)CC2)cc1   -2.86% (active)
1  Cc1nc2c(cnn2-c2ccccc2)c(=O)n1-c1ccc(NC(=O)c2ccc(F)cc2)cc1  85.2% (inactive)
2  O=c1cc(-c2ccccc2)oc2cc(OCCCCNCc3ccccc3)cc(O)c12  31.8% (inactive)

// below: growth requested for another compound
QUERY: Using known records, supply growth for `O=C1Nc2cc(Cl)ccc2/C1=C/c1cccc(OCc2ccc(Br)cc2F)c1`
RESULT: 6.98% (active)
